Listed here are variants together with their documented AIRE transcriptional activation functional score.
B1: library; numbered along this chain (parent)
chain: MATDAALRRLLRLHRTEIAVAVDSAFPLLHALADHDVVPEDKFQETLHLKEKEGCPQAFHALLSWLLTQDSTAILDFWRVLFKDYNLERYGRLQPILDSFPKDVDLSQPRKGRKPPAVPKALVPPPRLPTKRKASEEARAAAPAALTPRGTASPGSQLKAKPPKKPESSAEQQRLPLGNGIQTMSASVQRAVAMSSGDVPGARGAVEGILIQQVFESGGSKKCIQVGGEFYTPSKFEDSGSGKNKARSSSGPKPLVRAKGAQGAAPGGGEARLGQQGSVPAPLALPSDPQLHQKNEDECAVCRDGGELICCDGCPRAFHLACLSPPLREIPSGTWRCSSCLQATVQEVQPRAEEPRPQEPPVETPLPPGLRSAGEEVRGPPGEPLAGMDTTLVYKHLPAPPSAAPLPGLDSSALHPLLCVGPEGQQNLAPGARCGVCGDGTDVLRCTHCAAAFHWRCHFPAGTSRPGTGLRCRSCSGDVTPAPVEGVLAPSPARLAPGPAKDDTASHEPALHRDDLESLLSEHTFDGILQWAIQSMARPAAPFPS

- Variants of: B1
- assay_notes: AIRE transcriptional activation functional score (insulin promoter-GFP; nonsense median 0, synonymous median 1) (normalised score); higher = higher AIRE activity (more reporter activation)
- condition_summary: with insulin promoter-GFP reporter in HEK293
measured_property: AIRE transcriptional activation functional score

> print(dat)
    variant.identifier  value.measured
 1                W65V         -0.0047
 2               K222I          0.0162
 3                K52H          -0.455
 4                S71Y            1.52
 5               C449F           0.317
 6               P365Q            0.92
 7                N86G         -0.0879
 8               R110K            1.25
 9                H48R            1.64
10               Q225E            1.13
11               T130E           0.325
12               D312G            0.92
13               C419K            1.17
14               P289V            1.09
15               V192E           0.516
16               R257N           -1.39
17               P460L           0.827
18               V118W            1.13
19               A482E            1.28
20                A33P         -0.0164
21               A170F            1.69
22               R494C           0.847
23               C472Q          -0.424
24               H523K           0.199
25               E329S            1.09
26                S71W         -0.0187
27                I18H           0.614
28               L488M           0.976
29               L366P            1.13
30               S248N           0.778
31               P125F            0.97
32               V226E          0.0129
33                D76Y           0.302
34               N427C             1.1
35               S196V            1.27
36               S156G           0.917
37               R471V           0.217
38                V37A          -0.162
39                A33E           0.898
40               E298S           0.818
41                V38A          -0.245
42               S249P           0.451
43               A317Q          -0.307
44               R272T           0.941
45                L81I           0.143
46               D389V           0.292
47               T344H            1.29
48               A261Q            1.17
49                A73W          -0.767
50               S339P            1.13
51               Q349L             1.1
52               P357T             1.1
53               P466S            1.08
54               Q290T            0.55
55               S195T            1.31
56               L470D           0.572
57               R174W            2.14
58                F77T          0.0954
59               P148Q            1.14
60               Q172I            2.08
61               A186V          -0.207
62               A451I           0.663
63               L511T           0.121
64               S217T           0.908
65                H48C           0.651
66               L418F            1.42
67               A264K           0.671
68               T441W            1.57
69                Y85S           0.113
70               P542F           0.923
71               P357S           0.935
72               K164W            1.33
73               V214R            0.66
74               A265L            1.21
75                P95D           0.444
76               P119S           0.765
77                L62E          -0.679
78                L67A          0.0875
79               L428E           0.885
80               P466E           0.232
81                S24D           0.577
82               S412K           0.899
83               H415D           0.797
84               S521C           0.241
85               L519W           0.904
86               P365N           0.389
87                E40D           0.418
88               A117S           0.692
89               A264M            1.01
90               V487W           0.552
91               Q173N            1.68
